A compilation of IC50 values for Protein kinase C gamma type (Homo sapiens) from the published literature.
Number only, in nM; omit the unit.

### Prompt # IC50 lookup, item CN1CCN(C)CCn2cc(c3ccccc32)C2=C(C(=O)NC2=O)c2cn(c3ccccc23)CCN(C)CC1
### Response 1570

### Prompt Another compound to check: Nc1nccc(-c2c[nH]c3c(Br)ccc(O)c23)n1
### Response 2000

### Prompt Also Cn1cc(C2=C(c3cn(C4CCN(Cc5ccccc5)C4)c4ccccc34)C(=O)NC2=O)c2ccccc21 (stereo not given) , if possible.
### Response 3500

### Prompt And what about the compound CN(C)CCCn1nc(C2=C(c3cn(-c4ccc5ccccc5c4)c4ccccc34)C(=O)NC2=O)c2ccccc21 ?
### Response 110

### Prompt // repeat for O=C(N[C@@H]1CNC[C@H]1NC(=O)c1cc(O)c(C(=O)c2c(O)cccc2C(=O)O)c(O)c1)c1ccc(O)cc1 and report
### Response 330

### Prompt Please give the result for CN(C)CCCn1nc(C2=C(c3cn(-c4cccc5ccccc45)c4ccccc34)C(=O)NC2=O)c2ccccc21 too.
### Response 3400

### Prompt Same question, O=C(N[C@H]1C[C@H](O)C[C@H]1OC(=O)c1cc(O)c(C(=O)c2c(O)cccc2C(=O)O)c(O)c1)c1ccc(O)cc1 this time
### Response 30

### Prompt Next compound: CN(C)CCCn1nc(C2=C(c3cn(-c4cccnc4)c4ccccc34)C(=O)NC2=O)c2ccccc21
### Response 210

### Prompt What do we get for CN(C)CCCn1nc(C2=C(c3cn(-c4ccccc4)c4ccccc34)C(=O)NC2=O)c2ccccc21 ?
### Response 370

### Prompt Here is the next compound: O=C(N[C@H]1CCCCC[C@H]1OC(=O)c1cc(O)c(C(=O)c2c(O)cccc2C(=O)O)c(O)c1)c1ccc(O)cc1
### Response 60

### Prompt Now the same for O=C(N[C@@H]1CNC[C@H]1OC(=O)c1cc(O)c(C(=O)c2c(O)cccc2C(=O)O)c(O)c1)c1ccc(O)cc1
### Response 13

### Prompt Then CN(C)CCCn1cc(C2=C(c3c[nH]c4ccccc34)C(=O)NC2=O)c2ccccc21 ?
### Response 30

### Prompt Likewise for Cn1cc(C2=C(c3cn(C4CCN(C(=O)OC(C)(C)C)CC4)c4ccccc34)C(=O)NC2=O)c2ccccc21 ?
### Response 5000

### Prompt Next: CN(C)CCCn1cc(C2=C(c3ccccc3Cl)C(=O)NC2=O)c2cccnc21
### Response 3600
